- experimental_conditions: in ethyl acetate, 305.65 K
measurement_name: solubility (mole fraction)
Note: the reply should be a number with no unit written.

Query: Return reported solubility (mole fraction); argument: CC(C)(C)C(O)(CCc1ccc(Cl)cc1)Cn1cncn1 (stereo unspecified)
Reply: 0.0734

====

- experimental_conditions: in acetonitrile, 295.65 K
measurement_name: solubility (mole fraction)
Note: the reply should be a number with no unit written.

Query: Return reported solubility (mole fraction); argument: CC(C)(C)C(O)(CCc1ccc(Cl)cc1)Cn1cncn1 (stereo unspecified)
Reply: 0.012

====

- experimental_conditions: in isopropanol, 280.65 K
measurement_name: solubility (mole fraction)
Note: the reply should be a number with no unit written.

Query: Return reported solubility (mole fraction); argument: CC(C)(C)C(O)(CCc1ccc(Cl)cc1)Cn1cncn1 (stereo unspecified)
Reply: 0.0103

====

- experimental_conditions: in methanol, 278.15 K
measurement_name: solubility (mole fraction)
Note: the reply should be a number with no unit written.

Query: Return reported solubility (mole fraction); argument: CC(C)(C)C(O)(CCc1ccc(Cl)cc1)Cn1cncn1 (stereo unspecified)
Reply: 0.0154

====

- experimental_conditions: in acetone, 283.15 K
measurement_name: solubility (mole fraction)
Note: the reply should be a number with no unit written.

Query: Return reported solubility (mole fraction); argument: CC(C)(C)C(O)(CCc1ccc(Cl)cc1)Cn1cncn1 (stereo unspecified)
Reply: 0.038
